- Test system: Escherichia coli TOP10
- assayComment: shrunken log2 fold change of peptide-encoding DNA abundance (4.5 h post-induction vs induction); higher = less antimicrobial activity (less host growth inhibition)
- appliedConditions: time post-induction: 4.5 h; library: site-saturation at positions 5, 18, 19, 20
readout: shrunken log2 fold change

Solved cases below.
[[record]]
polymersequence = "RRIRPRPPRLPRPRPRPPFGPRP"
readout = "shrunken log2 fold change"
obsvalue = 0.432

[[record]]
polymersequence = "RRIRSRPPRLPRPRPRPWFQPRP"
readout = "shrunken log2 fold change"
obsvalue = -0.246

[[record]]
polymersequence = "RRIRCRPPRLPRPRPRPNEDPRP"
readout = "shrunken log2 fold change"
obsvalue = 0.0261

[[record]]
polymersequence = "RRIRYRPPRLPRPRPRPPRPPRP"
readout = "shrunken log2 fold change"
obsvalue = 0.637

[[record]]
polymersequence = "RRIRARPPRLPRPRPRPSKWPRP"
readout = "shrunken log2 fold change"
obsvalue = -0.101


Request: shrunken log2 fold change, test system Escherichia coli TOP10, entry `RRIRERPPRLPRPRPRPFEMPRP`
-0.536

Next up: `RRIRHRPPRLPRPRPRPKKIPRP`
-0.129

Input `RRIRFRPPRLPRPRPRPMVLPRP`
-0.0723

Entry to check: `RRIRYRPPRLPRPRPRPSDCPRP`
-0.0875

Then what about the sequence `RRIRARPPRLPRPRPRPCESPRP` ?
0.214

Cool, now `RRIRPRPPRLPRPRPRPNGMPRP`
0.171

Further, for `RRIRFRPPRLPRPRPRPPCMPRP` ?
-0.125

What do we get for `RRIRYRPPRLPRPRPRPGHHPRP` ?
-0.132

What do we get for `RRIRVRPPRLPRPRPRPSPWPRP` ?
0.021

Okay, and `RRIRWRPPRLPRPRPRPWKLPRP` ?
-0.00166

###

- Tested on: Escherichia coli TOP10
- assayComment: shrunken log2 fold change of peptide-encoding DNA abundance (4.5 h post-induction vs induction); higher = less antimicrobial activity (less host growth inhibition)
- appliedConditions: time post-induction: 4.5 h; library: site-saturation at positions 5, 18, 19, 20
Threshold rule: shrunken log2 fold change greater than or equal to -0.09 is Y; below that, N.

[[record]]
polymersequence = "RRIRWRPPRLPRPRPRPPMTPRP"
discretelabel = "Y"

[[record]]
polymersequence = "RRIRVRPPRLPRPRPRPCDYPRP"
discretelabel = "N"

[[record]]
polymersequence = "RRIRWRPPRLPRPRPRPPQPPRP"
discretelabel = "Y"

[[record]]
polymersequence = "RRIRSRPPRLPRPRPRPIHLPRP"
discretelabel = "Y"


Given `RRIRRRPPRLPRPRPRPHTPPRP` , state whether its shrunken log2 fold change is at least -0.09.
Y

Entry to check: `RRIRPRPPRLPRPRPRPSVRPRP`
Y

###

Measured shrunken log2 fold change, listed per entry.
- Tested on: Escherichia coli TOP10;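 further: peptides expressed intracellularly from a pBAD plasmid library in pooled LB shake-flask culture, induced with 0.3% L-arabinose, DNA abundance read by NGS, three biological replicates, DESeq2 with apeglm shrinkage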
- assayComment: shrunken log2 fold change of peptide-encoding DNA abundance (4.5 h post-induction vs induction); higher = less antimicrobial activity (less host growth inhibition)
- appliedConditions: time post-induction: 4.5 h; library: site-saturation at positions 5, 18, 19, 20
Format: numeric value only, no unit, no commentary.

[[record]]
polymersequence = "RRIRNRPPRLPRPRPRPAHGPRP"
readout = "shrunken log2 fold change"
obsvalue = 0.047


Any idea what shrunken log2 fold change was measured for `RRIRRRPPRLPRPRPRPTMWPRP` ?
0.364

And the next one, `RRIRTRPPRLPRPRPRPFYKPRP` ?
-0.6

Try `RRIRLRPPRLPRPRPRPCHHPRP` next.
-0.322

Try `RRIRIRPPRLPRPRPRPLEYPRP` next.
-0.293

Can you handle `RRIRKRPPRLPRPRPRPFARPRP` next?
0.187

Please do the same for `RRIRGRPPRLPRPRPRPHKVPRP` as well.
0.184
